Assay protocol: chemical genetic growth profiling, strain panel (AID 1159580);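 also: tested at 20 µM; growth read once vehicle control cultures reached saturation at 30 °C; 1 = growth at the plate median or of vehicle wells; lower values mean less growth of the strain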
Conditions: S. cerevisiae deletion strains, growth OD, locus YNR049C, strain mso1, stronger effect = lower value
In all, about 5,500 compounds went through this assay and about 2,000 (36%) were called active. Not shown: some 18% with an inconclusive outcome. Some of the results follow.
Property: normalized growth

| Compound | Reported value |
| --- | --- |
| COc1ccc(-c2cc(=O)c3c(O)cc(O[C@@H]4O[C@H](CO[C@H]5O[C@H](C)[C@@H](O)[C@H](O)[C@@H]5O)[C@@H](O)[C@H](O)[C@H]4O)cc3o2)cc1O | 1.01 |
| O=c1ccc2cc(OC3OC(CO)C(O)C(O)C3O)c(O)cc2o1 (centres undefined) | 0.982 |
| C[C@@H]1O[C@@H](OC[C@H]2OC(Oc3c(-c4ccc(O)c(O)c4)oc4cc(O)cc(O)c4c3=O)[C@H](O)[C@@H](O)[C@@H]2O)[C@H](O)[C@H](O)[C@H]1O (some centres undefined) | 0.998 |
| CC1O[C@@H](Oc2c(-c3ccc(O)c(O)c3)oc3cc(O)cc(O)c3c2=O)[C@H](O)[C@H](O)[C@H]1O (some centres undefined) | 0.986 |
| OCC(O)C(O)C(O)C(O)C(O)CO (centres undefined) | 0.987 |
| CC(=O)Oc1ccc2c(c1OC(C)=O)OCC1(O)Cc3c(cc(OC(C)=O)c(OC(C)=O)c3OC(C)=O)C21 (centres undefined) | 1.03 |
| COc1ccc2c(c1)CCC1C2CC[C@@]2(C)C1CC[C@@H]2O (some centres undefined) | 0.984 |
| CC(CC(O)C1OC1(C)C)[C@@H]1CCC2(C)C3=CCC4C(C)(C)C(=O)CCC4(C)C3CC[C@@]12C (some centres undefined) | 0.995 |
| O=c1c(O)c(-c2ccc(O)c(O)c2)oc2c(O[C@@H]3O[C@H](CO)[C@H](O)[C@@H](O)[C@H]3O)c(O)cc(O)c12 | 1.02 |
| CO[C@@]1(NC(=O)C(C(=O)O)c2ccc(O)cc2)C(=O)N2C(C(=O)O)=C(CSc3nnnn3C)CO[C@@H]21 (some centres undefined) | 0.972 |
| CC(=O)Oc1ccc2c(c1C(C)C)CCC1C(C)(C)CCC[C@]21C (some centres undefined) | 1.04 |
| CC(C)(C)NCC(O)c1cc(Cl)c(N)c(Cl)c1 (centres undefined) | 0.997 |
| O=C1[O][Bi][O]c2ccccc21 | 1.05 |
| NC(N)=NC(=O)c1nc(Cl)c(N)nc1N | 1.02 |
| COc1ccc2c(c1)CCC1C2CCC2(C)C1C[C@@H](O)C2O (some centres undefined) | 1.01 |
| C[C@H]1O[C@H](OC2[C@@H](O)[C@@H](O)C(O)[C@H](O)[C@H]2O)[C@@H](N)C[C@@H]1N=C(N)C(=O)O (some centres undefined) | 0.986 |
| COC(=O)[C@@]1(C)CCC[C@]2(C)c3ccc(O)c(C(C)C)c3CCC12 (some centres undefined) | 0.964 |
| C[C@]12CCC3c4ccc(O)cc4CCC3C1C[C@@H](O)[C@@H]2O (some centres undefined) | 1.02 |
| C=CC1C2=CCOC(=O)C2=COC1OC1OC(CO)C(O)C(O)C1O (centres undefined) | 1.01 |
